Values compiled from BindingDB's records for doi:10.1021/jm801065q.

ASSAY PROCEDURE: Activity at CXCR4 in human Jurkat T cells assessed as inhibition of CXCL12-induced cell migration
ASSAY ENDPOINT: pIC50
One number for each entry, as −log10 of the molar value.

Field pIC50 (entry C1=C(CS/C(=N\C2CCCCC2)NC2CCCCC2)N2CCN=C2S1 ) reads 7.24

====

ASSAY PROCEDURE: Activity at CXCR4 in rat IR983F cells assessed as inhibition of CXCL12-induced cell migration
ASSAY ENDPOINT: IC50 (nM)
One number for each entry, in nM.

Quick note, IC50 for C1=C(CS/C(=N\C2CCCCC2)NC2CCCCC2)N2CCN=C2S1 landed at 29
